Tested on: histamine-induced contraction of the isolated guinea-pig ileum
Experiment notes: Inhibitory effect on histamine-induced contraction of the isolated guinea-pig ileum
Assay type: cell-based
Cond: Cavia porcellus, 5 min, histamine 0.1 μM, 5 min incubation, 30° C.
pIC50: −log10 of the molar value. Where a name gives a salt, the structure may show the parent alone.
Property label: pIC50

Recorded pIC50, per entry:
{"Compound": "COc1ccc(CNC(=O)N(C)CCCN(C)c2nc3ccccc3n2Cc2ccc(F)cc2)cc1", "Experimental result": 7.36}
{"Compound": "CN(CCCN(C)C(=O)NCc1cc(C(F)(F)F)cc(C(F)(F)F)c1)Cc1nc2ccccc2n1Cc1ccc(F)cc1 [Compound 3, hydrochloride]", "Experimental result": 6.80}
{"Compound": "COc1cccc(CNC(=O)N(C)CCCN(C)c2nc3ccccc3n2Cc2ccc(F)cc2)c1", "Experimental result": 7.39}
{"Compound": "CN(CCCN(C)c1nc2ccccc2n1Cc1ccc(F)cc1)C(=O)NCc1ccccc1Cl", "Experimental result": 7.60}

A = COc1cc(CNC(=O)N(C)CCCN(C)c2nc3ccccc3n2Cc2ccc(F)cc2)cc(OC)c1OC
B = CN(CCCN(C)c1nc2ccccc2n1Cc1ccc(F)cc1)C(=O)NCc1cc(Cl)cc(Cl)c1
Req: When A and B are compared, which has the higher number for pIC50? Mark your answer with the label of the selected entry.
Resp: A
(A: 7.00, B: 6.70)

====

Test system: histamine-induced contraction of the isolated guinea-pig ileum
Experiment notes: Inhibitory effect on histamine-induced contraction of the isolated guinea-pig ileum
Type: cell-based
Cond: Cavia porcellus, 5 min, histamine 0.1 μM, 5 min incubation, 30° C.
Where a name gives a salt, the structure may show the parent alone.
Property label: IC50 (µM)

Below, 3 compounds whose answers are already recorded.
{"Compound": "Cc1ccc(CNC(=O)N(C)CCCN(C)c2nc3ccccc3n2Cc2ccc(F)cc2)cc1 [Compound 13]", "Assayed target": "histamine-induced contraction of the isolated guinea-pig ileum", "IC50 [µM]": 0.028}
{"Compound": "CN(CCCN(C)c1nc2ccccc2n1Cc1ccc(F)cc1)C(=O)NCc1cc(C(F)(F)F)cc(C(F)(F)F)c1 [Compound 1, hydrochloride]", "Assayed target": "histamine-induced contraction of the isolated guinea-pig ileum", "IC50 [µM]": 0.29}
{"Compound": "COc1ccccc1CNC(=O)N(C)CCCN(C)c1nc2ccccc2n1Cc1ccc(F)cc1 [Compound 5]", "Assayed target": "histamine-induced contraction of the isolated guinea-pig ileum", "IC50 [µM]": 0.029}

P = CN(CCN(C)c1nc2ccccc2n1Cc1ccc(F)cc1)C(=O)NCc1cc(C(F)(F)F)cc(C(F)(F)F)c1 [Compound 2, hydrochloride]
Q = CN(CCCN(C)c1nc2ccccc2n1Cc1ccc(F)cc1)C(=O)NCc1ccc(F)cc1 [Compound 9]
R = CN(CCN(C)C(=O)NCc1cc(C(F)(F)F)cc(C(F)(F)F)c1)Cc1nc2ccccc2n1Cc1ccc(F)cc1 [Compound 4, hydrochloride]
S = COc1cc(CNC(=O)N(C)CCCN(C)c2nc3ccccc3n2Cc2ccc(F)cc2)cc(OC)c1 [Compound 8]
Req: Your job: order these 4 records by IC50, ascending. A complete answer lists every label in the requested sequence.
Resp: Q, R, S, P
